// data source = patent US20040121946A9

biological target: DRB1*0101 (DR1) (Homo sapiens, UniProt P01903+P01911, A100R/D57E/F55L/F60I/F76Y/I96L/L162R/M171V/P40L/Q125E/R42F/V115G/Y59C); experiment: HLA class II peptide binding assay, purified HLA; conditions: Table XIX, DR supermotif peptides; unit not given
Where no end group is shown, it is not given here.
Threshold rule: DR1 binding data greater than or equal to 0.0007 is fulfilled; below that, not fulfilled.

LTSHSAVVGILLVV; fulfilled

## Task Evaluate LLVVVLGVVFGILIK : DR1 binding data at minimum 0.0007?
## Result not fulfilled

## Task Evaluate QGFFCPDPAPGAGGM : DR1 binding data at minimum 0.0007?
## Result not fulfilled

## Task Evaluate VVGILLVVVLGVVFG : DR1 binding data at minimum 0.0007?
## Result not fulfilled

## Task Evaluate DMKLRLPASPETHLD : DR1 binding data at minimum 0.0007?
## Result fulfilled

## Task Evaluate VEPLTPSGAMPNQAQ : DR1 binding data at minimum 0.0007?
## Result not fulfilled
